Would you kindly list relative viability for each of these molecules?
tested on: 201T; test: relative viability (nuclei count vs DMSO), 5 days (fraction); higher = more cells survive; conditions: first compound 0.03162 µM
Answer with the value's number alone.

Req: Look at this molecule and give its reported relative viability. CC(C)Oc1cc(Nc2nc(N[C@@H](C)c3ccc(F)cn3)ncc2Cl)n[nH]1 [AZ23] + COc1cccc2cc(-c3nc([C@H]4CC[C@H](C(=O)O)CC4)n4ncnc(N)c34)[nH]c12 [OSI-027] (partner 0.5 µM)
Resp: 0.827

Req: // repeat for CC(C)Oc1cc(Nc2nc(N[C@@H](C)c3ccc(F)cn3)ncc2Cl)n[nH]1 [AZ23] + Cc1cc(Nc2cc(N3CCN(C)CC3)nc(Sc3ccc(NC(=O)C4CC4)cc3)n2)n[nH]1 [Tozasertib] (partner 0.1 µM) and report
Resp: 0.968

Req: Also CC(C)Oc1cc(Nc2nc(N[C@@H](C)c3ccc(F)cn3)ncc2Cl)n[nH]1 [AZ23] + CCNC(=O)c1noc(-c2cc(C(C)C)c(O)cc2O)c1-c1ccc(CN2CCOCC2)cc1 [Luminespib] (partner 0.01 µM) , if possible.
Resp: 1.02

----------
Record form. Attribute: relative viability. Fill in for each entry.
system: NCI-H2009; assay: relative viability (nuclei count vs DMSO), 5 days (fraction); higher = more cells survive; conditions: first compound 0.1265 µM
No unit in the answer, please; the number alone is enough.

Req: Provide the documented relative viability with NCI-H2009 as the system for COc1cc(N2CCC(C(N)=O)CC2)ccc1Nc1nc(N)c(Cl)c(Nc2ccccc2S(=O)(=O)C(C)C)n1 [HG-5-88-01] + Cc1cc(Nc2cc(N3CCN(C)CC3)nc(Sc3ccc(NC(=O)C4CC4)cc3)n2)n[nH]1 [Tozasertib] (partner 0.1 µM)
Resp: 0.753

Req: Now consider COc1cc(N2CCC(C(N)=O)CC2)ccc1Nc1nc(N)c(Cl)c(Nc2ccccc2S(=O)(=O)C(C)C)n1 [HG-5-88-01] + Cc1nc(Nc2ncc(C(=O)Nc3c(C)cccc3Cl)s2)cc(N2CCN(CCO)CC2)n1 [Dasatinib] (partner 0.075 µM) .
Resp: 0.251

----------
I'd appreciate it if you could supply relative viability values for the items below.
test system: LU99A; experiment: relative viability (nuclei count vs DMSO), 5 days (fraction); higher = more cells survive; conditions: first compound 0.3162 µM
Note: the reply should be a number with no unit written.

Req: Please look up its relative viability: CC(C)Oc1cc(Nc2nc(N[C@@H](C)c3ccc(F)cn3)ncc2Cl)n[nH]1 [AZ23] + Cc1nc(Nc2ncc(C(=O)Nc3c(C)cccc3Cl)s2)cc(N2CCN(CCO)CC2)n1 [Dasatinib] (partner 0.075 µM)
Resp: 0.369

Req: One more molecule: CC(C)Oc1cc(Nc2nc(N[C@@H](C)c3ccc(F)cn3)ncc2Cl)n[nH]1 [AZ23] + O=C(c1cc(Cc2n[nH]c(=O)c3ccccc23)ccc1F)N1CCN(C(=O)C2CC2)CC1 [Olaparib] (partner 8 µM)
Resp: 0.328

Req: Also need CC(C)Oc1cc(Nc2nc(N[C@@H](C)c3ccc(F)cn3)ncc2Cl)n[nH]1 [AZ23] + O=C(CCCCCCC(=O)Nc1ccccc1)NO [Vorinostat] (partner 1 µM) , thanks.
Resp: 0.493

Req: Can you check CC(C)Oc1cc(Nc2nc(N[C@@H](C)c3ccc(F)cn3)ncc2Cl)n[nH]1 [AZ23] + CCNC(=O)c1noc(-c2cc(C(C)C)c(O)cc2O)c1-c1ccc(CN2CCOCC2)cc1 [Luminespib] (partner 0.01 µM) next?
Resp: 0.298

Source of measurements: the supplement of paper PMC10307832
